For each record, write down the corresponding log10 of MIC.
Test system: SAUR 9218
Experimental protocol: MIC Test Method, standard agar dilution
Assay type: cell-based
Run parameters: agar dilution, Mueller Hinton agar, incubated overnight at 35° C.; lowest concentration that inhibits visible growth; read-out: SAUR 9218 MIC
# log10 transformed; quantity=MIC; unit=µg/mL

# Smiles str, Target desc, log10 of MIC
measured = [
    ("CCCCn1c(C(=O)Nc2ccc(Br)cc2C(=O)O)cc2ccccc21", "SAUR 9218", 0.60),
    ("N#Cc1ccc(NC(=O)c2nc3ccccc3s2)c(C(=O)O)c1", "SAUR 9218", -0.60),
    ("O=C(Nc1ccc(Cl)cc1C(=O)O)c1cc(-c2ccccc2C(F)(F)F)on1", "SAUR 9218", 0.00),
    ("N#Cc1ccc(NC(=O)c2ccc(SCC3CC3)nc2)c(C(=O)O)c1", "SAUR 9218", -0.30),
    ("O=C(O)c1cc(Br)ccc1NC(=O)c1c[nH]c2ccccc12", "SAUR 9218", 0.60),
]

Field: log10 of MIC. Fill in for each record below.
1. CCCSc1ccc(C(=O)Nc2ccc(C#N)cc2C(=O)O)cn1.Cl
2. O=C(O)c1cc(Br)ccc1NC(=O)c1noc2ccc(S(=O)(=O)NCc3ccccc3)cc12

result:
1. -0.30
2. -1.22

For every listed record, write down its log10 of MIC.
1. N#Cc1ccc(NC(=O)c2cc3cccc(N)c3[nH]2)c(C(=O)O)c1
2. N#Cc1ccc(NC(=O)c2cnc(Cl)cn2)c(C(=O)O)c1

result:
0.00
1.51

----------
Test system: SAUR 9218
Experimental protocol: MIC Test Method, standard agar dilution
Type: cell-based
Run parameters: agar dilution, Mueller Hinton agar, incubated overnight at 35° C.; lowest concentration that inhibits visible growth; read-out: SAUR 9218 MIC
Measured metric: MIC (µg/mL)
Numbers only, in µg/mL.

Known MIC results, listed for orientation:
# Compound, Recorded value
data = [
    ("CCCN(CCC)S(=O)(=O)c1ccc(C(=O)Nc2ccc(Br)cc2C(=O)O)cn1", 8),
    ("CCN(CC)CCN(CC)S(=O)(=O)c1cc(C(=O)Nc2ccc(C#N)cc2C(=O)O)sc1C", 128),
    ("Cc1sc(C(=O)Nc2ccc(Br)cc2C(=O)O)cc1S(=O)(=O)NCc1ccc(N(C)C)cc1", 16),
]

Take each entry in turn and give its MIC.
1. N#Cc1ccc(NC(=O)c2cc3cccc(NC(=O)c4cccs4)c3[nH]2)c(C(=O)O)c1
2. COCCOCCCSc1ccc(C(=O)Nc2ccc(C#N)cc2C(=O)O)cn1
3. N#Cc1ccc(NC(=O)c2nsc(-c3ccccc3)c2Cl)c(C(=O)O)c1
4. Cn1c(C(=O)Nc2ccc(I)cc2C(=O)O)cc2ccccc21
5. O=C(Nc1ccc(Cl)cc1C(=O)O)c1cc(-c2ccccc2)on1 [drawing 1106]
6. CCCCS(=O)(=O)Nc1cccc2cc(C(=O)Nc3ccc(C#N)cc3C(=O)O)n(C)c12
7. N#Cc1ccc(NC(=O)c2onc3ccccc23)c(C(=O)O)c1
8. CCCOc1ccccc1C(=O)Nc1cccc2cc(C(=O)Nc3ccc(C#N)cc3C(=O)O)[nH]c12

result:
0.25
1
0.5
4
1
0.25
1
1

Would you be so kind as to report MIC for each listed record?
1. O=C(Nc1ccc(Br)cc1C(=O)O)c1nnc(SCc2ccccc2)s1
2. Cn1c(C(=O)Nc2ccc(C#N)cc2C(=O)O)cc2cccc(NC(=O)N3CCOCC3)c21
3. COc1cccc2[nH]c(C(=O)Nc3ccc(C#N)cc3C(=O)O)cc12
4. Cc1noc(C)c1-c1ccc2cc(C(=O)Nc3ccc(C#N)cc3C(=O)O)n(C)c2c1
5. CC(=O)OCCCCSc1ccc(C(=O)Nc2ccc(C#N)cc2C(=O)O)cn1

result:
1: 0.125; 2: 8; 3: 0.25; 4: 1; 5: 0.25

Consider the following items and state reported MIC for each.
1. COc1ccccc1-c1cc(C(=O)Nc2ccc(C#N)cc2C(=O)O)no1
2. COc1cccc(-c2cnc(C(=O)Nc3ccc(C#N)cc3C(=O)O)o2)c1

result:
1: 0.125; 2: 0.5
